src = patent EP0411334B1

biological target: HSV-1 ribonucleotide reductase (Human herpesvirus 1)
Where a SMILES comes first, the peptide text is derived from it. [ ]: non-standard residue; d: D form. The star is where a group is joined. Benzoyl(2-Ph) = O=C(c1ccccc1-c1ccccc1)*; Hydrocinnamoyl = O=C(CCc1ccccc1)*; NHPhenethyl = c1ccc(CCN*)cc1; NMeV = CN[C@H](C(=O)O)C(C)C; Morpholide = C1CN(*)CCO1; Bz = O=C(c1ccccc1)*; NEt2 = CCN(CC)*
assayEndpoint: pIC50
Expect pIC50 as a plain number equal to -log10 of the molar concentration.

molecule	pIC50
CC[C@H](C)[C@H](NC(=O)[C@H](C(C)C)N(C)C(=O)CCc1ccccc1)C(=O)N[C@@H](CC(=O)N(CC)CC)C(=O)N[C@@H](CC(=O)O)C(=O)N[C@@H](CC(C)C)C(=O)O [Entry 4] (Hydrocinnamoyl-[NMeV]ID(NEt2)DL-OH)	6.59
CC[C@H](C)[C@H](NC(=O)[C@@H](NC(=O)c1ccccc1)C(C)C)C(=O)N[C@@H](CC(=O)NCCc1ccccc1)C(=O)N[C@@H](CC(=O)O)C(=O)N[C@@H](CC(C)C)C(=O)O [Entry 22] (Bz-VID(NHPhenethyl)DL-OH)	5.12
CC[C@H](C)[C@H](NC(=O)[C@H](C(C)C)N(C)C(=O)CCc1ccccc1)C(=O)N[C@@H](CC(=O)N1CCOCC1)C(=O)N[C@@H](CC(=O)O)C(=O)N[C@@H](CC(C)C)C(=O)N(CC)CC [Entry 27] (Hydrocinnamoyl-[NMeV]ID(Morpholide)DL-NEt2)	5.59

# context switch: different molecule, same pIC50
Observed pIC50, HSV-1 ribonucleotide reductase (Human herpesvirus 1), CC[C@H](C)[C@H](NC(=O)[C@@H](NC(=O)c1ccccc1-c1ccccc1)C(C)C)C(=O)N[C@@H](CC(=O)NCCc1ccccc1)C(=O)N[C@@H](CC(=O)O)C(=O)N[C@@H](CC(C)C)C(=O)O [Entry 21] ({Benzoyl(2-Ph)}-VID(NHPhenethyl)DL-OH) : 5.90

###

Where a SMILES comes first, the peptide text is derived from it. [ ]: non-standard residue; d: D form. The star is where a group is joined. Dihydrocaffeoyl = O=C(CCc1ccc(O)c(O)c1)*; Hydrocinnamoyl = O=C(CCc1ccccc1)*; NMeV = CN[C@H](C(=O)O)C(C)C; Pyrrolidide = C1CCN(*)C1; NiPr2 = CC(C)N(C(C)C)*
# HSV-1 ribonucleotide reductase (Human herpesvirus 1, UniProt P08543): pIC50 values follow
# Sequence (P08543 whole entry): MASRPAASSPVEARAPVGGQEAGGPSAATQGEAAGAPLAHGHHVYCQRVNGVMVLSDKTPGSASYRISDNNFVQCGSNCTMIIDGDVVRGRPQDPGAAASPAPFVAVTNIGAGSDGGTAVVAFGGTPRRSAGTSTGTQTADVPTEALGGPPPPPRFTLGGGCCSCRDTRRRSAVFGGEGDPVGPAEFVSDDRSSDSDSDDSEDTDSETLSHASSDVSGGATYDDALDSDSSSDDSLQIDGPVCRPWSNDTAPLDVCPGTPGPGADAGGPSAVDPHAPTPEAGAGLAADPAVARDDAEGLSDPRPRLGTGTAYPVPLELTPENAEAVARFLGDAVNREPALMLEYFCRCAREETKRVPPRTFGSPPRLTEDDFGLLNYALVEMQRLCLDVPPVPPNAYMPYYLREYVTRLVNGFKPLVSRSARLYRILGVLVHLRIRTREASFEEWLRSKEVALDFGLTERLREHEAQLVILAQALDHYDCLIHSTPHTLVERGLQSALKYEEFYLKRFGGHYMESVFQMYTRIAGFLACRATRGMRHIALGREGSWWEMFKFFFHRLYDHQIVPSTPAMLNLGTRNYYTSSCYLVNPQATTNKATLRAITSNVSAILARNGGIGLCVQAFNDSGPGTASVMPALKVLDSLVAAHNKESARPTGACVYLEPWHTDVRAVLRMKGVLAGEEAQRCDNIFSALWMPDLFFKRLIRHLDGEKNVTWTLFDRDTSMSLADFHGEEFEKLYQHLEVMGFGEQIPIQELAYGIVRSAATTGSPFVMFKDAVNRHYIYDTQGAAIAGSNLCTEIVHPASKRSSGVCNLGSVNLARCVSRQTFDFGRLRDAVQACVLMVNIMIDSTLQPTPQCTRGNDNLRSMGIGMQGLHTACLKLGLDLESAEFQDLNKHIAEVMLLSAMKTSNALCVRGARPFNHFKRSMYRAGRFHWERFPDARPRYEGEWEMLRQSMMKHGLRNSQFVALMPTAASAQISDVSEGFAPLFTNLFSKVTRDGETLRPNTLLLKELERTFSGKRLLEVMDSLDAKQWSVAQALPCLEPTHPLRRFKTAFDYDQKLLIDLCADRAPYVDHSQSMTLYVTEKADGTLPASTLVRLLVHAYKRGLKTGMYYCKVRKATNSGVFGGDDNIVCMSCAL
Expect pIC50 as a plain number equal to -log10 of the molar concentration.

molecule	pIC50
CC[C@H](C)[C@H](NC(=O)[C@H](C(C)C)N(C)C(=O)CCc1ccc(O)c(O)c1)C(=O)N[C@@H](CC(=O)N1CCCC1)C(=O)N[C@@H](CC(=O)O)C(=O)N[C@@H](CC(C)C)C(=O)O [Entry 28] (Dihydrocaffeoyl-[NMeV]ID(Pyrrolidide)DL-OH)	6.60

# context switch: different molecule, same pIC50
Observed pIC50, HSV-1 ribonucleotide reductase (Human herpesvirus 1, UniProt P08543), CC[C@H](C)[C@H](NC(=O)[C@H](C(C)C)N(C)C(=O)CCc1ccccc1)C(=O)N[C@@H](CC(=O)N(C(C)C)C(C)C)C(=O)N[C@@H](CC(=O)O)C(=O)N[C@@H](CC(C)C)C(=O)O [Entry 5] (Hydrocinnamoyl-[NMeV]ID(NiPr2)DL-OH) : 6.60
